# assay: Cytotoxicity on THP-1-derived macrophages (MTT assay)
# Format: cell-based
# setup.conditions: human, THP-1-derived macrophages (PMA-differentiated), value or interval
measure: CC50 at 72 h

Recorded CC50 at 72 h (compound `O=C(Cc1ccc(C23CC4CC(CC(C4)C2)C3)cc1)NCCCn1cnc([N+](=O)[O-])n1` ): 50 to 100 µM

Note to self: CC50 at 72 h recorded for `O=C(NCCc1ccc(C23CC4CC(CC(C4)C2)C3)cc1)c1ccc([N+](=O)[O-])o1` was 50 to 100 µM

Please fill in: CC50 at 72 h reported for `O=C(NCCn1cnc([N+](=O)[O-])n1)c1ccc(C23CC4CC(CC(C4)C2)C3)cc1` = 25 to 50 µM
